Data provenance is PubChem BioAssay (NCI).

For each of the compounds below, state its TGI.
System: SF-539 CNS
Assay: NCI tumour cell line growth inhibition, 48 h

Problem: Quick one: TGI of COc1cc2[nH]c3c(c2cc1OC)CCN[C@]31CC[C@]2(CC3c4c(cc(OC)c(O)c42)CCN3C)C[C@H]1OC (stereo partly specified) ?
Result: 31.5 µM

Problem: Report TGI for `CCCCCCc1cc(C(=O)Nc2ccc(Cl)cc2)nc(=S)[nH]1` please.
Result: > 100 µM

Problem: Look up TGI: `COCC[C@H]1CCC/C=C/[C@@H]2C[C@H](O)C[C@H]2[C@H](O)/C=C/C(=O)O1`
Result: > 100 µM

Problem: Which measured TGI value corresponds to `CCN1CCN(c2nc3ccccc3c3c2CCOc2ccccc2-3)CC1` ?
Result: > 65.2 µM

Problem: Entry `CC1(C)/C(=C/N=O)N(O)C(C)(C)N1O` : reported TGI = ?
Result: > 100 µM

Problem: Record request: TGI value, item CN(C)CC1CCCC(CN(C)C)C1OC(=O)c1ccccc1 (stereo unspecified)
Result: > 100 µM

Problem: Data request, read-out TGI, for CC1=C(/C=C/Cl)CC(Cl)C(C)(Cl)C1 (stereo unspecified)
Result: > 100 µM

Problem: Any idea what TGI was measured for `CCN(CC)CCSc1c2cc(OC)ccc2nc2ccc(OC)cc12` ?
Result: > 100 µM

Problem: Report TGI for `N#C/C(=C/NC(N)=S)C(N)=O` please.
Result: > 100 µM

Problem: Which value of TGI has been reported for `CCOC(=O)c1c(N2CCOCC2)[nH]c(=O)c(C(c2c(Cl)cccc2Cl)c2c(O)c(C(=O)OCC)c(N3CCOCC3)[nH]c2=O)c1O` in the records?
Result: 11 µM

Problem: # lookup: TGI of `C=C(C)CCN[Si](c1ccccc1)(c1ccccc1)C(C)(C)C`
Result: 29.1 µM

Problem: Entry under review: CCOC(=O)C1C(=O)CC1(C)C (stereo unspecified) . Reported TGI?
Result: > 10 µM

Problem: // lookup TGI for CC(=O)O[C@H]1CCC2[C@@H]3CC[C@]4(C)CC(=O)C=C[C@]4(C)C3CC[C@@]21C (stereo partly specified)
Result: 31.8 µM

Problem: For `C=C(C)[C@@H]1CC[C@]2(CO)CC[C@]3(C)[C@H](CC[C@@H]4[C@@]5(C)C=C(C#N)C(=O)C(C)(C)[C@@H]5CC[C@]43C)[C@@H]12` , what is its reported TGI?
Result: 8.34 µM

Problem: # TGI lookup, item `Cc1ccc(N=C/C=C(\Nc2ccc(C)cc2)c2ccc(Cl)cc2)cc1`
Result: 26.6 µM

Problem: Fill in the blank: the reported TGI of `Cc1ccc(S(=O)(=O)N/N=C2/CCCOC2)cc1` is ____.
Result: > 100 µM

Problem: Request the reported TGI associated with `O=S(=O)(c1ccc(NC(=S)NC23CC4CC(CC(C4)C2)C3)cc1)N1CCCCC1`
Result: > 100 µM

Problem: TGI lookup needed for `O=C(/C=C/c1ccc(Cl)c(Cl)c1)c1ccc2ccccc2c1` , thanks.
Result: > 100 µM

Problem: Given Cn1cc(C2(C)CC(C)(C)c3c2n(C)c2ccccc32)c2ccccc21 (stereo unspecified) , state its recorded TGI.
Result: > 100 µM

Problem: Could you tell me which TGI is on file for `COC(=O)C1=CS/C(=C2\S[C@@H]3[C@H](S2)[C@H]2C=C[C@@H]3C2)S1` ?
Result: 32.5 µM

Problem: Sample `CN(C)CCCN=c1c2ccccc2n(O)c2ccccc12` — what was its TGI?
Result: > 100 µM

###

Provide the reported TGI of each item.
System: EKVX NSCLC
Experiment: NCI tumour cell line growth inhibition, 48 h

Problem: # returns recorded TGI (system: EKVX NSCLC) for `CCN(CC)CCSc1c2cc(OC)ccc2nc2ccc(OC)cc12`
Result: 29.7 µM

Problem: Find the measured TGI: item CC1CCCCNC1=S (stereo unspecified) , target or system EKVX NSCLC.
Result: > 10 µM

Problem: Give recorded TGI with EKVX NSCLC for the following compound: `CC(C)=C[C@H]1CCC2(OCCO2)[C@]1(C)CO`
Result: > 100 µM

Problem: What TGI appears in the records for this compound with EKVX NSCLC? `CC(=O)Nc1ccc(/C=C/c2ccc(NC(=O)Nc3ccc(/C=C/c4ccc(NC(C)=O)cc4S(=O)(=O)O)c(S(=O)(=O)O)c3)cc2S(=O)(=O)O)c(S(=O)(=O)O)c1`
Result: > 100 µM

Problem: TGI of c1ccc(C2N3CCCCC3[C@@H]3c4[nH]c5ccccc5c4CCN23)nc1 (stereo partly specified) on EKVX NSCLC?
Result: > 100 µM

Problem: GET /values?readout=TGI&system=EKVX NSCLC&item= `[N-]=[N+]=C1C(=O)NN=C1c1ccccc1`
Result: > 100 µM

Problem: Please state recorded TGI (tested on EKVX NSCLC) of `COc1ccc(C[N+](C)(C)N)cc1OC`
Result: > 100 µM

Problem: Quick check: TGI on EKVX NSCLC, item COc1cc2[nH]c3c(c2cc1OC)CCN[C@]31CC[C@]2(CC3c4c(cc(OC)c(O)c42)CCN3C)C[C@H]1OC (stereo partly specified) ?
Result: > 100 µM

Problem: Observed TGI on EKVX NSCLC for `CNC(=S)/N=C(\N)N(C)C` , please.
Result: > 100 µM

Problem: Record lookup: for EKVX NSCLC, what TGI belongs to `CC1(C)C(=O)/C(=C\c2cccnc2)C[C@]2(C)[C@H]3CC[C@@H]4[C@H]5[C@H](C(=O)/C=C/c6cccnc6)CC[C@]5(C(=O)O)CC[C@@]4(C)[C@]3(C)CC[C@@H]12` ?
Result: 4.92 µM

Problem: TGI of `O=C1/C(=C(/c2ccccc2)N2CCOCC2)Cc2ccccc21` on EKVX NSCLC?
Result: 13.5 µM

Problem: What value of TGI on EKVX NSCLC does `CO/C=C(/C(=O)OC)c1ccccc1COc1cccc(C(F)(F)F)c1` have?
Result: > 100 µM

Problem: # returns recorded TGI (system: EKVX NSCLC) for `CCc1nc2cc(F)c(/C=C/C(=O)NO)cc2c(=O)n1CCc1ccccc1`
Result: 15.7 µM

Problem: Lookup: TGI / EKVX NSCLC / CC12OC(C(=O)C13CC3)C1C(=O)c3ccc4c(ccc5ccccc54)c3C(=O)C12 (stereo unspecified)
Result: > 100 µM

Problem: Provide value of TGI for this record tested with EKVX NSCLC: `CC(C)=C[C@H]1CCC2(OCCO2)[C@]1(C)COCc1ccccc1`
Result: > 100 µM

Problem: Lookup: TGI / EKVX NSCLC / `COc1ccc(-c2cc(-c3cc(C)cc(Br)c3O)no2)cc1`
Result: 78.3 µM

Problem: Short answer please: TGI, EKVX NSCLC, entry `COc1cc2c3c(n(CCCN)c(=O)c2cc1OC)-c1ccc(C#N)cc1C3=O`
Result: 41.9 µM

Problem: Please state recorded TGI (tested on EKVX NSCLC) of `CN(Cc1ccccc1)C(=O)c1ccccc1C(=O)O`
Result: > 100 µM

Problem: Find TGI (EKVX NSCLC) for the entry `Nc1nc(-[n+]2ccc(-c3ccncc3)cc2)nc(Cl)c1Cl`
Result: > 100 µM

Problem: Form field: TGI recorded for `Cn1c([C@H](C#N)c2ncccc2[N+](=O)[O-])nc2ccccc21` with EKVX NSCLC (enter value)
Result: > 100 µM

Problem: Query TGI on EKVX NSCLC for `S=c1ssc(N2CCOCC2)c1Cl`
Result: > 100 µM

###

System: RXF-631 renal
Test: NCI tumour cell line growth inhibition, 48 h
TEST_READOUT: TGI (µM)
Give a bare numeral; the unit µM is implied.

Problem: Endpoint output: TGI of COc1cc2[nH]c3c(c2cc1OC)CCN[C@]31CC[C@]2(CC3c4c(cc(OC)c(O)c42)CCN3C)C[C@H]1OC (stereo not given in full) . Value?
Result: 25.7

Problem: Give the measured TGI of CN(C)CCC1(C2=CCCC2)CC/C(=C\c2ccc(Cl)cc2)C1=O (stereo not given) .
Result: 25.4

Problem: # query: TGI of entry `C=C(C)CCN[Si](c1ccccc1)(c1ccccc1)C(C)(C)C`
Result: 41.5

Problem: GET /values?readout=TGI&item= CCOC(=O)CCC(=O)C1c2cccc(O)c2C(=O)c2c(O)cc(C)cc21 (stereo not given)
Result: 1.65

Problem: Please report the recorded TGI for `Cn1c(O)c(C(=O)NC2CCCCC2)c(=O)n(C)c1=S` .
Result: 20.1

###

Test system: OVCAR-8 ovarian
Test: NCI tumour cell line growth inhibition, 48 h
Please go through the items and note down their TGI.

Problem: Would you kindly share the measured TGI for `O=c1cc(N2CCCC2)[nH]c(=O)n1-c1cccc(Cl)c1` ?
Result: > 100 µM

Problem: What does the data say about its TGI? Entry: `O=c1c2ccccc2nc(Cc2nc(-c3ccc(Cl)cc3)cs2)n1-c1ccc(Cl)cc1`
Result: > 100 µM

Problem: Look at this compound and give its reported TGI. `O=C(c1cccc2ccccc12)N1CCC(C2CCN(C(=O)c3cccc4ccccc34)CC2)CC1`
Result: > 100 µM

Problem: What value of TGI has been reported for the following compound? `CN(Cc1ccccc1)C(=O)c1ccccc1C(=O)O`
Result: > 100 µM

Problem: Form field: reported TGI of Cn1cc(C2(C)CC(C)(C)c3c2n(C)c2ccccc32)c2ccccc21 (stereo not given)
Result: > 100 µM
